Please respond with reported IC50 for every item in the list.
- System: LG0703-F498-PDC complex spheroid growth;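 also: luminescence taken as a proxy for viable cell amount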
- test_protocol: Anticancer human tumor LG0703-F498-PDC patient-derived lung adenocarcinoma cell line growth inhibition [AhR]
- assay_conditions: curve of first compound; second compound 0.316 µM

I'd like to know its IC50. The compound in question is Cn1ncnc1C1c2n[nH]c(=O)c3cc(F)cc(c23)NC1c1ccc(F)cc1 (stereo not drawn) + Cc1ccccc1N=Nc1ccc(NC(=O)c2ccnn2C)c(C)c1
> 0.1 µM

And then CCN(c1cc(-c2ccc(CN3CCOCC3)cc2)cc(C(=O)NCc2c(C)cc(C)[nH]c2=O)c1C)C1CCOCC1 + Cc1cncc(-c2nc(NCCc3c[nH]c4ccccc34)c3ncn(C(C)C)c3n2)c1 , what is it?
> 3 µM

And then CC1COCCN1c1cc(C2(S(C)(=N)=O)CC2)nc(-c2ccnc3[nH]ccc23)n1 (stereo not drawn) + Cc1ccccc1N=Nc1ccc(NC(=O)c2ccnn2C)c(C)c1 , what is it?
> 10 µM
